# measuredTarget: Human recombinant HDAC4 (Homo sapiens (Human), UniProt P56524)
# Sequence (P56524 2-1084): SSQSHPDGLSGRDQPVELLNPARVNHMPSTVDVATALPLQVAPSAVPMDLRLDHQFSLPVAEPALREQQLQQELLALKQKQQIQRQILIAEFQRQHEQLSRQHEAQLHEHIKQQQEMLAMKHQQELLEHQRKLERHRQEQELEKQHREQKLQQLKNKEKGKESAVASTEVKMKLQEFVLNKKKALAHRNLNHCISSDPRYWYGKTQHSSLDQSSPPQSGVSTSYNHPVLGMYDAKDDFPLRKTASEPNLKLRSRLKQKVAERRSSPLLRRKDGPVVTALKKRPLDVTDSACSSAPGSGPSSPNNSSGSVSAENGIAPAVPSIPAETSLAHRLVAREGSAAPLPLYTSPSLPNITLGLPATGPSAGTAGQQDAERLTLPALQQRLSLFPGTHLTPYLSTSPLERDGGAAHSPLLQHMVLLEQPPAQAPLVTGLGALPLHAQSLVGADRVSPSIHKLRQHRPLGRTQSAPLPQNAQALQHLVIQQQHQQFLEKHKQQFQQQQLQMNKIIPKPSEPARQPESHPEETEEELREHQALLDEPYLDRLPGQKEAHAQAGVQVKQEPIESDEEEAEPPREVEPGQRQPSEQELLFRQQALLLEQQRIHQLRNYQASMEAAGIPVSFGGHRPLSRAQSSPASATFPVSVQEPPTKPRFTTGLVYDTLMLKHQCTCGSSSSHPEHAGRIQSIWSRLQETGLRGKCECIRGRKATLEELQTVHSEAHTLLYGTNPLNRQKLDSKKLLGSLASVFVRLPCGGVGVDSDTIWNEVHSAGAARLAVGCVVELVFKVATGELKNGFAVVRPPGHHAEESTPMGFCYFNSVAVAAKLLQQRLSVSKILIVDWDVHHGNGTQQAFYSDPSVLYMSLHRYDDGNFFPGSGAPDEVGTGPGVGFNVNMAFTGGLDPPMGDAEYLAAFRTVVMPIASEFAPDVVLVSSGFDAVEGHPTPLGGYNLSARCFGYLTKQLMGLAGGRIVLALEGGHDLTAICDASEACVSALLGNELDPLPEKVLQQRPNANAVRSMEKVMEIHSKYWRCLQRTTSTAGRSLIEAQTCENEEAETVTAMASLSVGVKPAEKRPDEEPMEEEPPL
# testDescription: Test 2: HDAC4 assay (fluorogenic substrate, 5 μM acetyl-Gly-Ala-Lys(ε-trifluoroacetyl)-AMC)
# Assay type: biochemical
# measurementContext: Test 2 (values without asterisk)
# Protocol: Test 2: HDAC4 Assay Description Control wells with HDAC4 only (positive control) and without HDAC4 (negative control) were included on the microplate. Bovine trypsin (4.5 μl of a 300 nM solution) was added and the plate incubated for additional 15 minutes at room temperature. The plate was placed in a fluorescence microplate reader, and read at an excitation wavelength of 360 nm and an emission wavelength of 450 nm with a 10 nm bandpath. […]
measurementName: log10 of IC50 (log10 of the value in nM)
// stored as log10 of IC50 expressed in nM

Example molecules with recorded log10 of IC50:
C[C@H](CN1CCCCC1)NC(=O)c1ccc(-c2noc(C(F)(F)F)n2)cc1F [Example 129]
1.11
CCOC(=O)CNC(=O)Cc1ccc(-c2noc(C(F)(F)F)n2)cc1 [Example 8]
2.76
Cc1ccccc1NS(=O)(=O)c1ccc(-c2noc(C(F)(F)F)n2)cc1 [Example 103]
1.90

Report log10 of IC50 for NC1CCCCC1NC(=O)c1ccc(-c2noc(C(F)(F)F)n2)cc1 (centres unmarked) [Example 77] tested on Human recombinant HDAC4 (Homo sapiens (Human), UniProt P56524).
2.54

Now give it for C[C@H](CN(C)C)NC(=O)c1ccc(-c2noc(C(F)(F)F)n2)cc1 [Example 81] too.
1.53

Try the molecule O=S(=O)(N[C@@H]1CCNC1)c1ccc(-c2noc(C(F)(F)F)n2)cc1 [Example 102]
3.51

And for CN(C)C[C@H](Cc1ccccc1)NC(=O)c1ccc(-c2noc(C(F)(F)F)n2)cc1F [Example 117] ?
2.04

Repeat with CCN(CC)C[C@H](C)NC(=O)c1ccc(-c2noc(C(F)(F)F)n2)cc1F [Example 127]
1.64

And what about the molecule COCCNC(=O)c1ccc(-c2noc(C(F)(F)F)n2)cc1 [Example 16] ?
3.15

Now consider C[C@H](CN(C)Cc1ccccc1)NC(=O)c1ccc(-c2noc(C(F)(F)F)n2)cc1 [Example 156] .
-0.07

CC(CN(C)C)N(C)C(=O)c1ccc(-c2noc(C(F)(F)F)n2)cc1F (centres unmarked) [Example 144] ?
2.26

Entry CN(C)CCN(C)C(=O)c1ccc(-c2noc(C(F)(F)F)n2)cc1 [Example 37] please
2.53

The measured values listed here are drawn from patent US9056843B2.
